meta.source: patent US20070244048A1

- test.target: human NMUR2 (human, UniProt Q9GZQ4 1-415)
- Sequence (Q9GZQ4 whole entry): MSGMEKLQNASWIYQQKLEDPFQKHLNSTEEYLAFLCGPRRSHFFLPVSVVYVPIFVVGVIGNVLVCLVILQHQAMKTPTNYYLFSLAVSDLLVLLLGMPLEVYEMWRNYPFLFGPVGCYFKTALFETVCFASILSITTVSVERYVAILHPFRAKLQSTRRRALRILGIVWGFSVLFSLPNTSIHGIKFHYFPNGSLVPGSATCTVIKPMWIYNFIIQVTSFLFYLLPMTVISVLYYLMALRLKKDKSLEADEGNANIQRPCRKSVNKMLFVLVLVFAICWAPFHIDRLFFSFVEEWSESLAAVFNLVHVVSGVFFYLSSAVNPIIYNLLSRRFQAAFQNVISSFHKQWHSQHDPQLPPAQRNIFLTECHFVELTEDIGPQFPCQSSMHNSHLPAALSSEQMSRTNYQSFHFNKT
- assay.method.text: cell-based or functional assay
Starred links: 1 amine or outer side, 2 acyl side, 3 side chain; linkers in the order of their positions; H or OH if unused. Non-standard residues stand in square brackets, D forms with d. No end group written: not given here. *: point of attachment. Ttds = 1-amino-4,7,10-trioxa-13-tridecanamine succinimic acid spacer, O=C(CCC(=O)[*:2])NCCCOCCOCCOCCCN[*:1]; (PEG)2 40 kDa = branched PEG of 40 kDa linked via the Cys side-chain thiol (code C2 = Cys(PEG)2 40 kDa); Succinimide(1-Et,3-yl) = CCN1C(=O)CC(*)C1=O
property.label: % Activity (FLIPR) (%)
Lab book: enter the figure in %, no units written.

Qu. Need % Activity (FLIPR) of Ac-C(Succinimide(1-Et,3-yl))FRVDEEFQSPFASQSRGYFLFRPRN-NH2 [NMU8] , thanks.
Ans. 100

Qu. Need % Activity (FLIPR) of Ac-C(Succinimide(1-Et,3-yl))C(Succinimide(1-Et,3-yl))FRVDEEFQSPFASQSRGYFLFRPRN-NH2 [NMU22] , thanks.
Ans. 105

Qu. Need % Activity (FLIPR) of Ac-C(Succinimide(1-Et,3-yl))[Ttds]FLFRPRN-NH2 (SMILES CCN1C(=O)CC(SC[C@H](NC(C)=O)C(=O)NCCCOCCOCCOCCCNC(=O)CCC(=O)N[C@@H](Cc2ccccc2)C(=O)N[C@@H](CC(C)C)C(=O)N[C@@H](Cc2ccccc2)C(=O)N[C@@H](CCCNC(=N)N)C(=O)N2CCC[C@H]2C(=O)N[C@@H](CCCNC(=N)N)C(=O)N[C@@H](CC(N)=O)C(N)=O)C1=O) [NMU15] , thanks.
Ans. 101

Qu. Need % Activity (FLIPR) of Ac-C(Succinimide(1-Et,3-yl))GYFLFRPRN-NH2 (SMILES CCN1C(=O)CC(SC[C@H](NC(C)=O)C(=O)NCC(=O)N[C@@H](Cc2ccc(O)cc2)C(=O)N[C@@H](Cc2ccccc2)C(=O)N[C@@H](CC(C)C)C(=O)N[C@@H](Cc2ccccc2)C(=O)N[C@@H](CCCNC(=N)N)C(=O)N2CCC[C@H]2C(=O)N[C@@H](CCCNC(=N)N)C(=O)N[C@@H](CC(N)=O)C(N)=O)C1=O) [NMU6] , thanks.
Ans. 100

Qu. Need % Activity (FLIPR) of GYFLFRPRN-NH2 [NMU3] , thanks.
Ans. 100

Qu. Need % Activity (FLIPR) of Ac-C((PEG)2 40 kDa)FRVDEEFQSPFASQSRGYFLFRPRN-NH2 [NMU12] , thanks.
Ans. 89

Qu. Need % Activity (FLIPR) of Ac-C((PEG)2 40 kDa)FRVDEEFQSPFASQSRGYF[dA]WRPRN-NH2 [NMU14] , thanks.
Ans. 0

Qu. Need % Activity (FLIPR) of Ac-C((PEG)2 40 kDa)[Ttds]FLFRPRN-NH2 [NMU16] , thanks.
Ans. 75
